System Under Test: VAV1 (Homo sapiens, UniProt P15498+Q96SW2)
Construct: A heterozygous VAV1 C-terminal HiBiT knock-in pool was generated at Monte Rosa Therapeutics from a clonal Jurkat cell; endogenous in cells; host or cells: Jurkat clone stably expressing LgBiT, homozygous GSPT1-G575N; heterozygous VAV1-HiBiT knock-in pool
Method: VAV1 degradation activity, VAV1-HiBiT knock-in Jurkat luminescence assay (Example A, Table 1)
Assay type: cell-based
Details: Jurkat, VAV1-HiBiT knock-in Jurkat cells, luminescence read at 6 and 24 hours; read-out: VAV1 Dmax %
Cut-off 90% on Dmax, inclusive. At or above means met; below means not met.

Molecule	Qualitative Label
O=C1CCC(c2cccc(-c3ccc(Oc4ccccn4)cc3)c2Cl)C(=O)N1 (stereo not drawn) [Compound 354]	met

State whether the measured Dmax reaches 90%, counting equality as reaching it, for CC1CCN(Cc2ccc(-c3cccc(C4CCC(=O)NC4=O)c3Cl)cc2)C(=O)C1 (stereo not drawn) [Compound 286]
met

State whether the measured Dmax reaches 90%, counting equality as reaching it, for O=C1CCC(c2cccc(-c3ccc(N4C(=O)CCn5nccc54)cc3)c2Cl)C(=O)N1 (stereo not drawn) [Compound 330]
not met

State whether the measured Dmax reaches 90%, counting equality as reaching it, for CC1CCC(=O)N1Cc1ccc(-c2cccc(C3CCC(=O)NC3=O)c2Cl)cc1 (stereo not drawn) [Compound 297]
met

State whether the measured Dmax reaches 90%, counting equality as reaching it, for Cc1ccn(C)c(=O)c1-c1ccc(-c2cccc(C3CCC(=O)NC3=O)c2Cl)cc1 (stereo not drawn) [Compound 448]
met

State whether the measured Dmax reaches 90%, counting equality as reaching it, for O=C1CCC(c2cccc(-c3ccc(N4C(=O)OCC45CCC5)cc3)c2Cl)C(=O)N1 (stereo not drawn) [Compound 416]
met

State whether the measured Dmax reaches 90%, counting equality as reaching it, for O=C1CCC(c2cccc(-c3ccc(C4(n5ccccc5=O)CC4)cc3)c2Cl)C(=O)N1 (stereo not drawn) [Compound 241]
not met

State whether the measured Dmax reaches 90%, counting equality as reaching it, for Cn1ncc2c1CCN(c1ccc(-c3cccc(C4CCC(=O)NC4=O)c3Cl)cc1)C2=O (stereo not drawn) [Compound 313]
met

State whether the measured Dmax reaches 90%, counting equality as reaching it, for O=C1CCC(c2cccc(-c3ccc(N4CCC(Cn5ccccc5=O)CC4)cc3)c2Cl)C(=O)N1 (stereo not drawn) [Compound 166]
not met

State whether the measured Dmax reaches 90%, counting equality as reaching it, for CN1CCCN(c2ccc(-c3cccc(C4CCC(=O)NC4=O)c3Cl)cn2)C1=O (stereo not drawn) [Compound 435]
not met

These entries and their values trace back to patent US12257247B2.
